# TARGET_SYSTEM: T1, human NPR1 on CHO-K1 cells (human, UniProt P16066 33-1061)
# T1 sequence: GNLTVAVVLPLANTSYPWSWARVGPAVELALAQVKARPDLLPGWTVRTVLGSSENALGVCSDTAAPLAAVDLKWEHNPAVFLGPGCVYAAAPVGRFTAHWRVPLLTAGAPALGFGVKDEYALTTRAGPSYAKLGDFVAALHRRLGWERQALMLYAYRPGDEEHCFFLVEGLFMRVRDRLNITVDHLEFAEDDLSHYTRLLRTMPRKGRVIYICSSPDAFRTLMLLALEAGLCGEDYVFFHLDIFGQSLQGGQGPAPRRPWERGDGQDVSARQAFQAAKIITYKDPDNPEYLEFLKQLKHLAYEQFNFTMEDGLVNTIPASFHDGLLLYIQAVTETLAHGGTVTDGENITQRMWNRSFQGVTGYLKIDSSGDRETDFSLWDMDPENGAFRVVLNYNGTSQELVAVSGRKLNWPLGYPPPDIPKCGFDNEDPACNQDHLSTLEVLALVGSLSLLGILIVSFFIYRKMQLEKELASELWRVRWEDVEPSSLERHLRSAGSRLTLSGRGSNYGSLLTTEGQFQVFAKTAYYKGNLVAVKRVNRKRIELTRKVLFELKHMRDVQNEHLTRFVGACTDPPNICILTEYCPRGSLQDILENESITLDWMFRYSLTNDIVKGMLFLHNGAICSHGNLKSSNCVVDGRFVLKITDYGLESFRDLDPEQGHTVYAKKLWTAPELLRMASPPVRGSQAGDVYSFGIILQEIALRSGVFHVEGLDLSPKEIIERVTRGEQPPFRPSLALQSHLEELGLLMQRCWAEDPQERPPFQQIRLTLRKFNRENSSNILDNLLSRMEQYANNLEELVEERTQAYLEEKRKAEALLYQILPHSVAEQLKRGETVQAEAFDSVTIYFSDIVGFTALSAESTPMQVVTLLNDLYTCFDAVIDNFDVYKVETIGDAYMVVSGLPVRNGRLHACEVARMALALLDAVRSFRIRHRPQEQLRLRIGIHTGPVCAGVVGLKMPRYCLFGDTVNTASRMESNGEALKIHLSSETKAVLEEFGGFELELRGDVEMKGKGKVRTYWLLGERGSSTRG
# PROTOCOL_SUMMARY: cell-based or functional assay
MEASUREMENT_TYPE: cGMP conc [nM] at 1 µM FabCys, +0.075 nM ANP (nM)
Report the figure in nM without appending any unit label.

Task: Query (binder): YY06 (FabCys format) (Fab, V domains shown, Monovalent FabCys) VH: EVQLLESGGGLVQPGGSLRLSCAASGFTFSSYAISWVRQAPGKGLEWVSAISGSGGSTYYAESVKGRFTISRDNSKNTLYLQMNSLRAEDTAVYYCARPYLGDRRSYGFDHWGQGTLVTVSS VL: QSALTQPASVSGSPGQSITISCTGTSSDVGSYNLVSWYQQHPGKAPKLMIYEGSKRPSGVSNRFSGSKSGNTASLTISGLQAEDEADYYCSSYGFHIVVVVFGGGTKLTVL ; field requested: cGMP conc [nM] at 1 µM FabCys, +0.075 nM ANP
Result: 75
